pIC50: −log10 of the molar value.
Below are molecules with their pIC50 as measured on Coagulation factor X (Homo sapiens, UniProt P00742).
Sequence (P00742 41-179 limits assumed): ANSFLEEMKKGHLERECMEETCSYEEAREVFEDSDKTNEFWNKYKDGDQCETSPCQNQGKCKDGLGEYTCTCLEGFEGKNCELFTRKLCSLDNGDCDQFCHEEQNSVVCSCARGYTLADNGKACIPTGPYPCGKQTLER
Sequence (P00742 235-488 limits assumed): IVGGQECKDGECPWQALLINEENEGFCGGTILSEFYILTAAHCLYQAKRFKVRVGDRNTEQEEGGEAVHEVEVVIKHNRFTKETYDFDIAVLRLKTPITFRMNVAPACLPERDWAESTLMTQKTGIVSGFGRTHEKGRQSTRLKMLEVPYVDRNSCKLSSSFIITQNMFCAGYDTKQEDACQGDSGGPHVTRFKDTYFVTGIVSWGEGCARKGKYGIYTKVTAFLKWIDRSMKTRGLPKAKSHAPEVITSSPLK

# pIC50 lookup, item COc1cn(Cc2cc(-c3ccc(N)nc3F)ccn2)c(=O)cc1-c1cc(Cl)ccc1-n1cnnn1
< 6.00

// repeat for CC[C@@H](C(=O)Nc1ccc(C(N)=O)c(F)c1)n1cc(OC)c(-c2cc(Cl)ccc2-n2cc(C(F)(F)F)nn2)cc1=O and report
< 6.00

// repeat for CCC(c1cc(-c2ccc(N)nc2)ccn1)n1cc(OC)c(-c2cc(Cl)ccc2-n2cnnn2)cc1=O (racemic) and report
< 6.00

====

system: Plasma; assay: Anticoagulant activity in citrated human plasma assessed as prolongation of activated partial thromboplastin time at 1 uM incubated for 3 mins by aPTT reagent based automated coagulometric analysis relative to control; assay type: functional; conditions: 0.05 h
Kindly state Activity for each of the entries shown.
Supply the numeric figure in %, leaving out any unit text.

# Activity lookup, item COc1cn(Cc2cccc(-c3ccc(N)nc3)c2)c(=O)cc1-c1cc(Cl)ccc1-n1cnnn1
143.3

// repeat for COc1cn(Cc2cccc(-c3ccc4[nH]ncc4c3)c2)c(=O)cc1-c1cc(Cl)ccc1-n1cnnn1 and report
38.7

// repeat for CCC(c1cccc(-c2ccc(N)nc2)c1)n1cc(OC)c(-c2cc(Cl)ccc2-n2cc(Cl)nn2)cc1=O (stereo not drawn) and report
55.6

// repeat for CC[C@@H](c1cc(-c2ccc(N)nc2F)ccn1)n1cc(OC)c(-c2cc(Cl)ccc2-n2cnnn2)cc1=O and report
335.4

// repeat for CC[C@@H](c1cc(-c2ccc(N)nc2)ccn1)n1cc(OC)c(-c2cc(Cl)ccc2-n2cnnn2)cc1=O and report
368.3

// repeat for COc1cn(Cc2ccc(F)c(-c3ccc4[nH]ncc4c3)c2)c(=O)cc1-c1cc(Cl)ccc1-n1cnnn1 and report
57.1

// repeat for COc1cn(Cc2cc(-c3ccc(N)nc3)ccn2)c(=O)cc1-c1cc(Cl)ccc1-n1cnnn1 and report
193.8

// repeat for COc1cn(Cc2ccc(F)c(-c3ccncc3)c2)c(=O)cc1-c1cc(Cl)ccc1-n1cnnn1 and report
129.8
